assay: NCI Yeast Anticancer Drug Screen. Data for the mec2-1 strain (AID 157); details: S. cerevisiae mec2-1 strain, at 50.0 µM
The panel holds about 79,000 compounds, 15% with a hit somewhere; the sample as a whole holds those more often. Calls of active or inactive are those of the source. Cut-off read from the data, not from the text of the source: active = growth inhibition above about 70%; inactive = the rest.
Hello, when you answer, please use one of the following outcomes: active, inactive

The following compounds have reported results that may help.
[
  {
    "COMPOUND": "CNC(=O)CC(=O)NC",
    "LABEL_VALUE": "inactive"
  },
  {
    "COMPOUND": "COc1cc2c(cc1OC)C(Cc1ccccc1CCCl)=NCC2",
    "LABEL_VALUE": "inactive"
  },
  {
    "COMPOUND": "CCN(C(=O)NC(C)(C)C)c1cccc(C)c1",
    "LABEL_VALUE": "inactive"
  }
]

Called result for Nc1nc(C2CCCCC2)cc(=O)[nH]1 inactive

# lookup: test call for COc1cc(C(=O)Nc2c3ccccc3nc3ccccc23)cc(OC)c1OC inactive

Please state the recorded outcome for this compound: CN(C)C1=NC(c2ccccc2)(c2ccccc2)C(=O)N1 inactive

Given COc1cc(Br)cc(OC)c1Oc1cc(OC)c(OC)c(OC)c1Br , state the outcome it received in this test. inactive

Which outcome was assigned to CCOC(=O)c1ccc(-c2cccs2)[nH]1 in this test? inactive

Lab log entry: Clc1nc2ccccc2c2ccccc12 — outcome as called in the assay? inactive

Assay result, entry CCOC(=O)Nc1cc(Cl)c2ncn(C(=O)OCC)c2n1 — outcome? inactive

Hi, sorry to bother you, what did the test record for Cc1ccc2oc(=O)c3c(O)c4cccc(OC5OC(C)C6O[C@@H](c7ccccc7)OC6C5OC5OC(C)C(O)C(O)C5O)c4c4oc(=O)c1c2c34 (some centres undefined) ? active

Which outcome was assigned to CCC(c1ccc(OC)cc1)C1NC(=S)NC1=O (centres undefined) in this test? inactive

---

Answer each item with its documented growth inhibition.
test: NCI Yeast Anticancer Drug Screen. Data for the cln2 rad14 strain (AID 165);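 note: 0% = growth equal to vehicle treated cultures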; details: S. cerevisiae cln2 rad14 strain, at 50.0 µM, active compounds read high
The panel holds about 79,000 compounds, 15% with a hit somewhere; the sample as a whole holds those more often.
Numbers only, in %.

[
  {
    "COMPOUND": "c1coc(C2OCCO2)c1",
    "PARAMETER_MEASURED": "growth inhibition",
    "ASSAY_RESULT": 6.75
  },
  {
    "COMPOUND": "CC(=O)OCCn1c([N+](=O)[O-])cnc1/C=[N+](/C)[O-]",
    "PARAMETER_MEASURED": "growth inhibition",
    "ASSAY_RESULT": 1.9
  },
  {
    "COMPOUND": "CCOC(=O)c1ccc(N(C=O)CCC(OCC)OCC)cc1",
    "PARAMETER_MEASURED": "growth inhibition",
    "ASSAY_RESULT": -49.4
  }
]

Need growth inhibition for each of these compounds.
1. CC(C)Sc1nc(NC(=O)N(C)N=O)cc(=O)[nH]1
2. CC1=Cc2cc3[n-]c(cc4nc(cc5[n-]c(cc1n2)c(C)c5CCC(=O)O)C(CCC(=O)O)=C4C)cc3C.[Cu+2]

[27.5, -49.5]

---

test: NCI Yeast Anticancer Drug Screen. Data for the mec2-1 strain (AID 157); settings: S. cerevisiae mec2-1 strain, at 50.0 µM, active compounds read high
About 79,000 compounds went through this panel and 15% of them were active in at least one assay; those are over-represented in the sample as a whole.
PARAMETER_MEASURED: growth inhibition (%)
Numbers only, in %.

Solved entries:
[
  {
    "COMPOUND": "Nc1nc(NCc2ccccc2)cc(=O)[nH]1",
    "PARAMETER_MEASURED": "growth inhibition",
    "ASSAY_RESULT": -20.8
  },
  {
    "COMPOUND": "CCCCOB(OCCCC)OCCCC",
    "PARAMETER_MEASURED": "growth inhibition",
    "ASSAY_RESULT": -3.25
  }
]

Answer for every listed entry: what is its growth inhibition? The entries follow.
1. Cc1c(C2CC(=O)N(c3ccccc3)C2=O)c2ccccc2n1C (configuration not stated)
2. c1ccn2c(CCc3nnc4ccccn34)nnc2c1
3. COC(=O)C(=O)C1CCc2c(ccc3c2CCCC3)C1 (configuration not stated)
4. Nc1nc(N)nc(CCC(Br)(Br)Br)n1
5. S=C(c1ccccc1Cl)N1CCOCC1

-6
-8.4
17.4
4.75
-22.2

---

assay: NCI Yeast Anticancer Drug Screen. Data for the mec2-1 strain (AID 157); conditions: S. cerevisiae mec2-1 strain, at 50.0 µM, active compounds read high
The panel holds about 79,000 compounds, 15% with a hit somewhere; the sample as a whole holds those more often.
PARAMETER_MEASURED: growth inhibition (%)
Numbers only, in %.

[
  {
    "MOLECULE": "[O-]/[N+]1=[N+](\\[O-])c2ccccc2CCCc2ccccc21",
    "growth inhibition / %": -7.3
  }
]

List the reported growth inhibition of each molecule below.
1. Cc1nc(N)sc1C
2. O=c1sc2ncccc2n1-c1ccc([N+](=O)[O-])cn1
3. O=C(O)CC(CSCP(=O)(O)O)C(=O)O (configuration not stated)
4. c1ccc2c(c1)[nH]c1c2ncc2[nH]c3ccccc3c21
5. CCC(=O)NC(OCC1(CC)COC1)(C(F)(F)F)C(F)(F)F

[-26.9, 10.4, 1.55, 2.85, -10.8]

Lab note: each molecule below needs its growth inhibition filled in.
1. CC(=O)OCC/C=C\CCCOC(C)=O
2. O=C(Nc1ccccc1[N+](=O)[O-])OCc1ccccc1
3. CCN(CC)CCNc1nnc(NCCN(CC)CC)c2cc3ccccc3cc12
4. Cc1ccc(S(=O)(=O)CC(=O)CC(=O)C(=O)Nc2ccc(C)cc2C)cc1
5. CCOC(=O)C1CNCCC1=O (configuration not stated)
6. C=CCOc1cc2c(cc1C(C)c1ccc(OC)cc1)OCO2 (configuration not stated)

[-2.7, 10.4, 21, -9.2, -20.9, 0.75]

---

assay: NCI Yeast Anticancer Drug Screen. Data for the cln2 rad14 strain (AID 165);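 note: 0% = growth equal to vehicle treated cultures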; settings: S. cerevisiae cln2 rad14 strain, at 50.0 µM, active compounds read high
About 79,000 compounds went through this panel and 15% of them were active in at least one assay; those are over-represented in the sample as a whole.
PARAMETER_MEASURED: growth inhibition (%)
Answers are plain numbers, in %.

Answered examples (3):
[
  {
    "COMPOUND": "Cn1c(=O)c2c(=O)n3ccccc3nc2n(C)c1=O",
    "UNIT_ABBREV": "%",
    "growth inhibition": 68.4
  },
  {
    "COMPOUND": "Nc1ccc(N=Nc2ccc(N)cc2)cc1",
    "UNIT_ABBREV": "%",
    "growth inhibition": -8.9
  },
  {
    "COMPOUND": "CCN(CC)CCN(C(=S)Nc1ccccc1)c1ccccc1",
    "UNIT_ABBREV": "%",
    "growth inhibition": -10.1
  }
]

Give one value of growth inhibition per listed compound.
1. O=C1CN(c2cccc(Cl)c2)C(=O)CN1CCN1CC(=O)N(c2cccc(Cl)c2)CC1=O
2. CN(C)NC(=O)Oc1ccc(Cl)cc1
3. COc1ccccc1-n1c(NN)nc2ccc(Br)cc2c1=O
4. NC1C(O)OCC(O)C1O (stereo not given)
5. CCOc1ccc2nc3cc(I)ccc3c(N)c2c1
6. Cc1cc(C(C)(C)C)ccc1S(=O)(=O)/C=C/c1ccccc1
7. COC(=O)C(C(=O)C(=O)Nc1ccc([N+](=O)[O-])cc1)c1nc2ccc([N+](=O)[O-])cc2[nH]c1=O (stereo not given)

-7.8
-4.55
13.2
7.25
-10.3
0.45
-41.2

---

assay: NCI Yeast Anticancer Drug Screen. Data for the bub3 strain (AID 167); details: S. cerevisiae bub3 mutant strain, at 50.0 µM, active compounds read high
The panel holds about 79,000 compounds, 15% with a hit somewhere; the sample as a whole holds those more often. The source made the active and inactive calls. No stated cut-off is given here; in the data, active means growth inhibition above about 70%; inactive means the rest.
Can you tell me growth inhibition for the items I'm about to list?

Completed entries (count: 5):
[
  {
    "COMPOUND": "Clc1cc(Cl)nc(Cl)n1",
    "PARAMETER_MEASURED": "growth inhibition",
    "ASSAY_RESULT": "4.6% (inactive)"
  },
  {
    "COMPOUND": "CC1CCOCCCOC(=O)CCOCCC(=O)OCCCOCCCOC(=O)CCOCCC(=O)O1 (stereo unspecified)",
    "PARAMETER_MEASURED": "growth inhibition",
    "ASSAY_RESULT": "-5.95% (inactive)"
  },
  {
    "COMPOUND": "Cc1cc(C)cc(C(=O)NCc2ccc[n+]([O-])c2)c1",
    "PARAMETER_MEASURED": "growth inhibition",
    "ASSAY_RESULT": "0.4% (inactive)"
  },
  {
    "COMPOUND": "NC(N)=Nc1ccccc1OC1OC(CO)C(O)C(O)C1O (stereo unspecified)",
    "PARAMETER_MEASURED": "growth inhibition",
    "ASSAY_RESULT": "-7% (inactive)"
  },
  {
    "COMPOUND": "COc1ccc2[nH]c(-c3cccc(N(C)C)c3)cc(=O)c2c1",
    "PARAMETER_MEASURED": "growth inhibition",
    "ASSAY_RESULT": "-26% (inactive)"
  }
]

Count: 2. Required value per item: growth inhibition.
1. O=C(c1ccc(OC(=O)c2ccccc2O)cc1)c1ccc(OC(=O)c2ccccc2O)cc1
2. Cc1cccc(CNc2ncnc3[nH]ncc23)c1

8.3% (inactive)
-36.1% (inactive)

// input: 5 compounds below; output: growth inhibition for each
1. CCN(CC)C(COC(=O)Nc1ccccc1)COC(=O)Nc1ccccc1
2. c1ccc(CSCCc2ccncc2)cc1
3. COC(=O)c1cc(O)c(C(=O)OC)s1
4. Nc1ncnc2c1ncn2C1C=CC(COS(N)(=O)=O)C1 (stereo unspecified)
5. OCC1NCCCC1O (stereo unspecified)

["-18.9% (inactive)", "-3.55% (inactive)", "14.8% (inactive)", "13.9% (inactive)", "-18.1% (inactive)"]

Give growth inhibition for each listed item.
1. CN(C)c1nc(N(C)C)nc(N(C)C=O)n1
2. CC12NC(=O)NC1(C)NC(=O)N2 (stereo unspecified)
3. Cc1ccc(-c2nnc(CCCCCCCCc3nnc(-c4ccc(C)cc4O)n3N)n2N)c(O)c1
4. CCN(CC)C(=S)Nc1ccc(-c2cc3ccc(O)cc3oc2=O)cc1
5. CC(=NNC(=S)Nc1ccccc1)c1cccc(C(C)=NNC(=S)Nc2ccccc2)n1
6. Nn1nc2ccccc2n1
7. O=S(=O)(c1ccc(Br)cc1)C(F)(F)F

1: -27.6% (inactive); 2: -29.6% (inactive); 3: 1.75% (inactive); 4: 18.2% (inactive); 5: -2.3% (inactive); 6: 0.75% (inactive); 7: 12.7% (inactive)

Report growth inhibition for every entry below.
1. O=C(Nc1cccc([N+](=O)[O-])c1)C(=O)C(C(=O)c1ccccc1F)C1OC(=O)C2C=CC=CC21 (stereo unspecified)
2. CCN(CC)C1=NS(=O)(=O)c2ccccc21
3. OC1CC2CCCCC2CC1c1ccccc1 (stereo unspecified)
4. CC(C)C(C(=O)O)C(=O)O
5. CCN(CC)CCN(C(=S)Nc1ccccc1)c1ccccc1
6. CSCCC(O)C(=O)O (stereo unspecified)

-32.9% (inactive)
2.3% (inactive)
27.4% (inactive)
3.9% (inactive)
9.5% (inactive)
-2.55% (inactive)

The recorded growth inhibition for entry S=c1nc(-c2cccnc2)[nH][nH]1 equals 1.55% (inactive)
